pEC50 listing for selected molecules.
tested-on: human mGluR3 (hmGluR3) (Homo sapiens, UniProt Q14832)
Sequence (Q14832 23-879): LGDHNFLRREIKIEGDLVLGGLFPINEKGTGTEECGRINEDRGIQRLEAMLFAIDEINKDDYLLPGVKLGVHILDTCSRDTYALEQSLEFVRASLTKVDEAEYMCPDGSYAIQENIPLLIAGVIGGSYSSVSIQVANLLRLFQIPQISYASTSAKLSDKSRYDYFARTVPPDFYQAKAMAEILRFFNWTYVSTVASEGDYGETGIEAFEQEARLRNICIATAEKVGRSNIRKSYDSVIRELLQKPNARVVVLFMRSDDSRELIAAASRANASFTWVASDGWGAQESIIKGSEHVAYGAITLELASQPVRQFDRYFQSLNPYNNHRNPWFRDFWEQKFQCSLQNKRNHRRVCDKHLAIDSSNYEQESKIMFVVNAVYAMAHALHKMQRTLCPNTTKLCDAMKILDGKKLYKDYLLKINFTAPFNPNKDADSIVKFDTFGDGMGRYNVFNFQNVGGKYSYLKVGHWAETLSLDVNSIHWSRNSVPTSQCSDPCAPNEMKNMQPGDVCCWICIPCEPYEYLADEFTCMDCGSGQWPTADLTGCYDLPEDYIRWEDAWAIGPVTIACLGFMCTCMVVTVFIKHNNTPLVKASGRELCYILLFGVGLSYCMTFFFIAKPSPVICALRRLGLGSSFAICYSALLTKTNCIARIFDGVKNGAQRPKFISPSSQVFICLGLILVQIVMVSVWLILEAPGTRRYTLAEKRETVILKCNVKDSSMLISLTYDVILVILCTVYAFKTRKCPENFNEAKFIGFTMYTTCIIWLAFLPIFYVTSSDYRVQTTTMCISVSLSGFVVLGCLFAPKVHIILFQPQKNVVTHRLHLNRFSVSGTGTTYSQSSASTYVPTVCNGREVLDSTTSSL
test-description: Human mGluR3 positive allosteric modulator evaluation using Ca++ functional assay
experimental-parameters: hmGluR3 transiently over-expressed in HEK-293 cells; stimulated by EC50 glutamate concentration; intracellular Ca2+ (Fluo4AM, FLIPR Tetra)
pEC50: −log10 of the molar value.

Some molecules with known pEC50 results, for comparison:
molecule | tested-on | pEC50
CN1C(=O)c2cc(-c3ccccc3)nn2-c2cc(-c3cccc(C(=O)O)c3)ccc2C12CC2 | human mGluR3 (hmGluR3) (Homo sapiens, UniProt Q14832) | > 7.00
CCc1ncccc1-c1ccc2c(c1)-n1cc(COC)cc1C(=O)N(C)C21CC1 | human mGluR3 (hmGluR3) (Homo sapiens, UniProt Q14832) | > 7.00
Cc1ccncc1-c1ccc2c(c1)-n1cc(-c3ccccc3)cc1C(=O)N(C)C21CC1 | human mGluR3 (hmGluR3) (Homo sapiens, UniProt Q14832) | 6.00 to 7.00
COCc1cc2n(c1)-c1cc(-c3ccc(F)nc3)ccc1C1(CC1)N(C)C2=O | human mGluR3 (hmGluR3) (Homo sapiens, UniProt Q14832) | > 7.00
COc1ccc(-c2ccc3c(c2)-n2cccc2C(=O)N(C)C32CC2)cc1OC | human mGluR3 (hmGluR3) (Homo sapiens, UniProt Q14832) | 6.00 to 7.00
CN1C(=O)c2cccn2-c2cc(-c3cccnc3)ccc2C12CC2 | human mGluR3 (hmGluR3) (Homo sapiens, UniProt Q14832) | 6.00 to 7.00
CN1C(=O)c2cc(-c3ccccc3)cn2-c2cc(-c3cccnc3F)ccc2C12CC2 | human mGluR3 (hmGluR3) (Homo sapiens, UniProt Q14832) | 6.00 to 7.00
CN1C(=O)c2cccn2-c2cc(Cl)ccc2C1(C)C | human mGluR3 (hmGluR3) (Homo sapiens, UniProt Q14832) | < 6.00

Inquiry: Lab request: please report pEC50 under test system human mGluR3 (hmGluR3) (Homo sapiens, UniProt Q14832) for Cc1cc(-c2ccc3c(c2)-n2cc(-c4ccccc4)cc2C(=O)N(C)C32CC2)cc(C)n1
Reply text: 6.00 to 7.00

Inquiry: Item CN1C(=O)c2cc(-c3ccccc3)nn2-c2cc(-c3cccc(S(=O)(=O)N(C)C)c3)ccc2C12CC2 with human mGluR3 (hmGluR3) (Homo sapiens, UniProt Q14832) - pEC50?
Reply text: 6.00 to 7.00

====

tested-on: human mGluR3 (hmGluR3) (Homo sapiens)
test-description: Human mGluR3 positive allosteric modulator evaluation using Ca++ functional assay
experimental-parameters: hmGluR3 transiently over-expressed in HEK-293 cells; stimulated by EC50 glutamate concentration; intracellular Ca2+ (Fluo4AM, FLIPR Tetra)
pEC50: −log10 of the molar value.
observed-property: pEC50

Guide cases for pEC50, answers given:
line-notation | tested-on | measured-value
CN1C(=O)c2cc(-c3ccccc3)cn2-c2ccc(N3CCOCC3)cc2C12CC2 | human mGluR3 (hmGluR3) (Homo sapiens) | < 6.00
Cc1ncccc1-c1cccc2c1-n1cccc1C(=O)N(C)C21CC1 | human mGluR3 (hmGluR3) (Homo sapiens) | < 6.00
CN1C(=O)c2cccn2-c2cc(-c3ccncc3)ccc2C12CC2 | human mGluR3 (hmGluR3) (Homo sapiens) | 6.00 to 7.00
Cc1ncccc1-c1ccc2c(c1)-n1cc(C(F)F)cc1C(=O)N(C)C21CC1 | human mGluR3 (hmGluR3) (Homo sapiens) | > 7.00
CN1C(=O)c2cccn2-c2cc(-c3cnn(C)c3)ccc2C12CC2 | human mGluR3 (hmGluR3) (Homo sapiens) | 6.00 to 7.00
CN1C(=O)c2cccn2-c2cc(-c3cc[nH]c(=O)c3)ccc2C12CC2 | human mGluR3 (hmGluR3) (Homo sapiens) | < 6.00
CN1C(=O)c2cc(-c3ccccc3)nn2-c2cc(Br)ccc2C12CC2 | human mGluR3 (hmGluR3) (Homo sapiens) | < 6.00
CN1Cc2ccc(-c3ccc(N)nc3)cc2-n2cc(-c3ccccc3)cc2C1=O | human mGluR3 (hmGluR3) (Homo sapiens) | 6.00 to 7.00

Okay, now this molecule:
Inquiry: For the molecule CN1C(=O)c2cc(-c3ccccc3)nn2-c2ccccc2C12CC2 , what pEC50 is on record?
Reply text: < 6.00
